TEST_SUMMARY: chemical genetic growth profiling, strain panel (AID 1159580);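 also: tested at 20 µM; growth read once vehicle control cultures reached saturation at 30 °C; 1 = growth at the plate median or of vehicle wells; lower values mean less growth of the strain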
CONDITION_DETAILS: S. cerevisiae deletion strains, growth OD, locus YPL055C, strain LGE1
Hit rate of the full screen: of about 5,500 compounds, about 2,000 (36%) were called active. About 18% were inconclusive and are not listed. Rule as the data show it: active = normalized growth mostly below about 0.91 (no sharp cut-off); inconclusive = no clear call, values can overlap the other calls; inactive = mostly above about 0.92. The list shows a part of the results.
I would appreciate it if you answered using one of these outcomes: active, inactive

The following compounds have reported results that may help.
COc1cc(NC(=O)Nc2ccc(OC(F)(F)F)cc2)cc(C(F)(F)F)c1: inactive
Nn1nnc2ccccc21: inactive
Cc1cccc(N2C(=O)C3C4C=CC(C4)C3C2=O)n1 (stereo unspecified): inactive
CC(C(=O)O)c1ccc(CC2CCCC2=O)cc1 (stereo unspecified): inactive
CCOC(=O)c1ncn2c1[C@@H]1CCCN1C(=O)c1cc(OC)ccc1-2: inactive

Lookup: # lookup: test call for `NNC(=S)Nc1ccc(C(F)(F)F)cc1`
Found: active

Lookup: # lookup: test call for `N[C@@H](CCCC(=O)O)C(=O)O`
Found: inactive

Lookup: # lookup: test call for `CC(=O)CSc1nsc(SCC(C)=O)c1C#N`
Found: inactive

Lookup: # lookup: test call for `CCOC(=O)c1c(Nc2ccccc2)sc([N+](=O)[O-])c1N`
Found: inactive

Lookup: # lookup: test call for `CCCCC(=O)N(Cc1ccc(-c2ccccc2-c2nn[nH]n2)cc1)[C@H](C(=O)O)C(C)C`
Found: inactive

====

TEST_SUMMARY: chemical genetic growth profiling, strain panel (AID 1159580);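 also: tested at 20 µM; growth read once vehicle control cultures reached saturation at 30 °C; 1 = growth at the plate median or of vehicle wells; lower values mean less growth of the strain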
CONDITION_DETAILS: S. cerevisiae deletion strains, growth OD, locus YNL298W, strain CLA4 (second series), stronger effect = lower value
The whole screen tested about 5,500 compounds, of which about 2,000 (36%) were called active. Inconclusive results (about 18%) are left out. The list shows a part of the results.
Measured normalized growth values are reported for all entries that follow.
No unit in the answer, please; the number alone is enough.

Example compounds with recorded normalized growth:
Cc1c(-n2cccc2)cc2c(c1[N+](=O)[O-])C(C)(C)CC2(C)C: 1.04
CC(=O)CSc1nsc(SCC(C)=O)c1C#N: 0.988
O=c1nc(-c2ccccc2)nc(-c2ccccc2)[nH]1: 0.944
Cc1ccc(S(=O)(=O)Oc2cc(=O)n(C)c3ccccc23)cc1: 0.916

Lookup: Using known records, supply normalized growth for `CCCc1ccc(OC)cc1NC(C)=O`
Found: 1.05

Lookup: Using known records, supply normalized growth for `COc1cccc(CC(=O)NN)c1`
Found: 1.02

Lookup: Using known records, supply normalized growth for `CC(C)(C)c1cc(C(C)(C)C)n(-c2ccc([N+](=O)[O-])cc2)n1`
Found: 1.05

Lookup: Using known records, supply normalized growth for `O=S(=O)(O)c1cccc2cccc(Cl)c12`
Found: 1.02

Lookup: Using known records, supply normalized growth for `O=C(NCCNc1ccc(C(F)(F)F)cc1[N+](=O)[O-])c1cccs1`
Found: 0.863

Lookup: Using known records, supply normalized growth for `CC(=O)c1csc([N+](=O)[O-])c1`
Found: 1.02

Lookup: Using known records, supply normalized growth for O=C(NC(c1ccccc1)C(N=Cc1ccccc1)c1ccccc1)c1ccccc1 (centres undefined)
Found: 1.05

Lookup: Using known records, supply normalized growth for `COc1cc(NC(=O)Nc2ccc(OC(F)(F)F)cc2)cc(C(F)(F)F)c1`
Found: 0.923

Lookup: Using known records, supply normalized growth for `COc1ccccc1N=C1SCC(=O)N1Cc1ccco1`
Found: 0.997

Lookup: Using known records, supply normalized growth for `Cc1cc(C)c(C(=O)NCCNc2ccc(C(F)(F)F)cc2[N+](=O)[O-])c(C)c1`
Found: 0.785

Lookup: Using known records, supply normalized growth for `CC(=O)/C(=C\N(C)C)Sc1ccc(Cl)cc1`
Found: 1.03

Lookup: Using known records, supply normalized growth for `Cc1oc(-c2ccccc2)cc1C(=O)N1CCN(c2ccc(C(F)(F)F)cn2)CC1`
Found: 0.826

Lookup: Using known records, supply normalized growth for `CCSC(SCC)[C@H](O)[C@@H](O)[C@H](O)CO`
Found: 0.988

Lookup: Using known records, supply normalized growth for `N#C/C(=N/Nc1ccc(C(F)(F)F)cc1)C(=O)C1CC1`
Found: 0.842
